Tested on: ncRNAs (SEQ ID NO 28-89)
Assay: ncRNA arrays of melanocytes, keratinocytes, normal skin, melanoma cell lines and patient samples
Parameters: species or system human
Details: melanoma patient 22 sample compared to normal skin
MEASURED_ENDPOINT: ncRNA array expression, patient 22
Lab note: write the figure by itself, no unit.

As a guide, the following entries are already answered.
For reference, reported ncRNA array expression, patient 22 for SEQ ID NO 34 (TTTTCTCTGCTTATTACCCTCCCTGTTTCCTCCTGGGCTGCCAACAACATATTATATTAC; listed as DNA, chemistry not given here; listed as Homo sapiens) stands at 2.727

For reference, reported ncRNA array expression, patient 22 for SEQ ID NO 29 (TTAAATACATGTTTCTAATATTTTAGTGTTTTGTATTTAGGTTATTTATTCTTTGTATCT; DNA, backbone and methylation of C not given here; listed as Homo sapiens) stands at 1.796

For reference, reported ncRNA array expression, patient 22 for SEQ ID NO 89 (GGACACAGAGAGTCATGCACCAGCCCAGTGAGAACCAATTCAGAGCCAAATGCCAAACCC; listed as DNA, chemistry not given here; listed as Homo sapiens) stands at −0.9143

New cases:
For reference, reported ncRNA array expression, patient 22 for SEQ ID NO 56 (AAAAAATGAGGCAATCTCATCCCGAAACTATTTAAAACTACTCTCCTCTCTCTTGATAAA; listed as DNA, chemistry not given here; listed as Homo sapiens) stands at −1.277

For reference, reported ncRNA array expression, patient 22 for SEQ ID NO 69 (AGAGTTCGCACTGGGAAGAGTTAAAAAATAAACATTTACAAGGACGAGGAAAGCGGCCCC; listed as DNA, chemistry not given here; listed as Homo sapiens) stands at −0.8782

For reference, reported ncRNA array expression, patient 22 for SEQ ID NO 37 (ACGCACTGGGCGTTGAAGCAGTGCTTTCTGGATTAAATACGAAATACTGATGTCACAAGC; DNA, backbone and methylation of C not given here; listed as Homo sapiens) stands at 0.0988

For reference, reported ncRNA array expression, patient 22 for SEQ ID NO 75 (CAAGTGGGAAGAAAAAGAGCCCTACGTGGTGACATTCTGGAAGGATATCATGGATGATTG; listed as DNA, chemistry not given here; listed as Homo sapiens) stands at 1.681

For reference, reported ncRNA array expression, patient 22 for SEQ ID NO 53 (ATATATTTAGATAGTACTATGTTTCGTTTTCTTCCGATTTCAGGGATCCTTTTGTCTTAC; listed as DNA, chemistry not given here; listed as Homo sapiens) stands at −2.7031

For reference, reported ncRNA array expression, patient 22 for SEQ ID NO 81 (CTAGGGGCGGAGTTTCTCGTAAGGGGCAAGGCCAAGGCATCTTGTATTGGGGCTGACAGG; listed as DNA, chemistry not given here; listed as Homo sapiens) stands at −1.3874

For reference, reported ncRNA array expression, patient 22 for SEQ ID NO 28 (CTTAATGTATCTAAGGTTGGCTTAATCCTGTCTAAAATCAAGGTATTGGACTAGAACAAT; DNA, backbone and methylation of C not given here; listed as Homo sapiens) stands at 1.388

For reference, reported ncRNA array expression, patient 22 for SEQ ID NO 39 (TGATCCTGTAAATCATGTTTTTGTTTATTCCCCAACACTAACCTCACTCCTTTACTATTC; listed as DNA, chemistry not given here; listed as Homo sapiens) stands at −0.301

For reference, reported ncRNA array expression, patient 22 for SEQ ID NO 80 (CACACAGCCCAGTCTGCCTGTGATGGTAATATAAATCAAACCAGGGACCCAAGAGCCCAG; listed as DNA, chemistry not given here; listed as Homo sapiens) stands at −0.7073

For reference, reported ncRNA array expression, patient 22 for SEQ ID NO 51 (ATGTATTTTAGGTAATAAGATTTTTATCAATTGTGTCTTTTTCTTTCTTTGCTTTCTATA; listed as DNA, chemistry not given here; listed as Homo sapiens) stands at 0.5543

For reference, reported ncRNA array expression, patient 22 for SEQ ID NO 44 (AGCCAACTCACGCTTAGGGAGAACTCATACCGCCTAAATATAAAGGCAATTATATATATA; listed as DNA, chemistry not given here; listed as Homo sapiens) stands at −1.029

For reference, reported ncRNA array expression, patient 22 for SEQ ID NO 64 (TTGCCTAGGAACAAAGAAGGCTTGTGAGGAGATCAAGGAACTTACATGAAATTGTAGGAA; listed as DNA, chemistry not given here; listed as Homo sapiens) stands at 1.302

For reference, reported ncRNA array expression, patient 22 for SEQ ID NO 48 (ACTTATATTCAGAGCATGTGGATTGGGACTCTGAAGAACAACTTTATGGTGGACACCTTC; listed as DNA, chemistry not given here; listed as Homo sapiens) stands at −0.4681

For reference, reported ncRNA array expression, patient 22 for SEQ ID NO 38 (GTAAACAAGGTCTCACAAAAACAGCTGACCACACCATAAAATCACTGAGACCGAGCCTGC; listed as DNA, chemistry not given here; listed as Homo sapiens) stands at −0.7593

For reference, reported ncRNA array expression, patient 22 for SEQ ID NO 52 (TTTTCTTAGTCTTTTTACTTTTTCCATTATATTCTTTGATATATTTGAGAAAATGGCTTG; listed as DNA, chemistry not given here; listed as Homo sapiens) stands at −0.2277

The values you see were collected from patent US20110143948A1.
